molecular target: CAMK1 (Homo sapiens, UniProt Q14012)
measured.quantity: IC50

>>> df
                                   compound  measured_quantity       reading
0               Nc1ncsc1C#Cc1cnc2[nH]ccc2c1               IC50  10 to 100 µM
1                    Nc1ncsc1C#Cc1cccc(O)c1               IC50    1 to 10 µM
2  CC(C)(C)OC(=O)Nc1ncsc1C#CCN1C(=O)c2ccccc2C1=O               IC50        > 1 µM
3  CC(C)(C)OC(=O)Nc1nc(-c2ccncc2)sc1C#CCN1CCOCC1               IC50    1 to 10 µM
4  c1ccc(Cc2c[nH]c3ncsc23)cc1 [Compound A7, 6-benzyl-4H-pyrrolo[2,3-d]thiazole]               IC50    1 to 10 µM

====

Let's go through some recorded pIC50 values for ERBB4 (Homo sapiens, UniProt Q15303) together.
pIC50: −log10 of the molar value.
measured.quantity: pIC50

                                   molecule       reading
0  CC(C)(C)OC(=O)Nc1ncsc1C#CCN1C(=O)c2ccccc2C1=O [Compound A26]        < 6.00
1  Nc1ncsc1C#Cc1cccc(O)c1 [Compound A27, 3-(4-aminothiazol-5-ylethynyl)phenol]  5.00 to 6.00
2  CC(C)(C)OC(=O)Nc1nc(-c2ccncc2)sc1C#CCN1CCOCC1 [Compound A25]        < 6.00
3  c1ccc(Cc2c[nH]c3ncsc23)cc1 [Compound A7, 6-benzyl-4H-pyrrolo[2,3-d]thiazole]  4.00 to 5.00
4  Nc1ncsc1C#Cc1cnc2[nH]ccc2c1 [Compound A22]        < 6.00

====

pIC50: −log10 of the molar value.
pIC50 tested on PRKACA (Homo sapiens): recorded values
measured.quantity: pIC50

>>> df
                                   molecule       target_or_system       reading
0  CC(C)(C)OC(=O)Nc1nc(-c2ccncc2)sc1C#CCN1CCOCC1  PRKACA (Homo sapiens)        < 6.00
1                    Nc1ncsc1C#Cc1cccc(O)c1  PRKACA (Homo sapiens)  5.00 to 6.00
2  c1ccc(Cc2c[nH]c3ncsc23)cc1 [Compound A7, 6-benzyl-4H-pyrrolo[2,3-d]thiazole]  PRKACA (Homo sapiens)        < 6.00
3               Nc1ncsc1C#Cc1cnc2[nH]ccc2c1  PRKACA (Homo sapiens)  5.00 to 6.00
4  CC(C)(C)OC(=O)Nc1ncsc1C#CCN1C(=O)c2ccccc2C1=O  PRKACA (Homo sapiens)  4.00 to 5.00

====

The compounds below have reported pIC50 for MAP3K9 (Homo sapiens, UniProt P80192).
pIC50: −log10 of the molar value.
measured.quantity: pIC50

>>> df
                                   compound  measured_quantity       reading
0  Nc1ncsc1C#Cc1cnc2[nH]ccc2c1 [Compound A22]              pIC50  5.00 to 6.00
1  CC(C)(C)OC(=O)Nc1ncsc1C#CCN1C(=O)c2ccccc2C1=O [Compound A26]              pIC50  5.00 to 6.00
2  CC(C)(C)OC(=O)Nc1nc(-c2ccncc2)sc1C#CCN1CCOCC1 [Compound A25]              pIC50        < 6.00
3  c1ccc(Cc2c[nH]c3ncsc23)cc1 [Compound A7, 6-benzyl-4H-pyrrolo[2,3-d]thiazole]              pIC50  5.00 to 6.00
4  Nc1ncsc1C#Cc1cccc(O)c1 [Compound A27, 3-(4-aminothiazol-5-ylethynyl)phenol]              pIC50  5.00 to 6.00

====

What follows is a collection of IC50 values obtained with MAPK11 (Homo sapiens, UniProt Q15759).
Sequence (Q15759 whole entry, species assumed): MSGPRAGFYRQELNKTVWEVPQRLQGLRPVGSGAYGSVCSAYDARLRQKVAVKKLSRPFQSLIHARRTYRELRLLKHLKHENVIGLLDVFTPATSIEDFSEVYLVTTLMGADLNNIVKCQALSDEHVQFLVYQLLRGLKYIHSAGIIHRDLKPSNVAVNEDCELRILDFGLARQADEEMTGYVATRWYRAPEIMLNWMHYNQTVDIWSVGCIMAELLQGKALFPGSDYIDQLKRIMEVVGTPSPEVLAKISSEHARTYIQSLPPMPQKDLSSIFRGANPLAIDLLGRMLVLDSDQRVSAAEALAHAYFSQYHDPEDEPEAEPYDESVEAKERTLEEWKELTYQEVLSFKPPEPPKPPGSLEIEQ
measured.quantity: IC50

>>> print(df.to_string())
                                   molecule     reading
0  CC(C)(C)OC(=O)Nc1nc(-c2ccncc2)sc1C#CCN1CCOCC1      > 1 µM
1  CC(C)(C)OC(=O)Nc1ncsc1C#CCN1C(=O)c2ccccc2C1=O      > 1 µM
2               Nc1ncsc1C#Cc1cnc2[nH]ccc2c1      > 1 µM
3                    Nc1ncsc1C#Cc1cccc(O)c1  1 to 10 µM
4  c1ccc(Cc2c[nH]c3ncsc23)cc1 [Compound A7, 6-benzyl-4H-pyrrolo[2,3-d]thiazole]  1 to 10 µM

====

Target chain: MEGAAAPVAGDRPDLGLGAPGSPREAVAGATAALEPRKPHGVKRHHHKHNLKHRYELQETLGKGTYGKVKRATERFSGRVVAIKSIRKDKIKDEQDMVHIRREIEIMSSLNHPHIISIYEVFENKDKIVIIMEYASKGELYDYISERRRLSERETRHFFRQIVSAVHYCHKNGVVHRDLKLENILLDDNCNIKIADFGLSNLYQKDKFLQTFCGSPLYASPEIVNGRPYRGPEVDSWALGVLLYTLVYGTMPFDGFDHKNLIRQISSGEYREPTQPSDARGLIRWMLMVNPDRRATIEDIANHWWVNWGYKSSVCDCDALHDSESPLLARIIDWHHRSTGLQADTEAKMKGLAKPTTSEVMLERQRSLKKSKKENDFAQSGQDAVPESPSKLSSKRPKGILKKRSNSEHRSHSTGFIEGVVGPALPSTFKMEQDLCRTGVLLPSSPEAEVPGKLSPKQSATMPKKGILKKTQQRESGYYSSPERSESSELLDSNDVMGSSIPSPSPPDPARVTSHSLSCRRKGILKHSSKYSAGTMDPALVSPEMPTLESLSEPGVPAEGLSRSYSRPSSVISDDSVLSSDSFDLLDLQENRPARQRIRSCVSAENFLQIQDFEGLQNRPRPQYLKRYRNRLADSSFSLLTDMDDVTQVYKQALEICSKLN
pIC50: −log10 of the molar value.
pIC50 listing for selected compounds.
measured.quantity: pIC50

>>> df
                                   compound  measured_quantity       reading
0  CC(C)(C)OC(=O)Nc1nc(-c2ccncc2)sc1C#CCN1CCOCC1 [Compound A25]              pIC50  4.00 to 5.00
1  Nc1ncsc1C#Cc1cnc2[nH]ccc2c1 [Compound A22]              pIC50  6.00 to 8.00
2  CC(C)(C)OC(=O)Nc1ncsc1C#CCN1C(=O)c2ccccc2C1=O [Compound A26]              pIC50  6.00 to 8.00
3  Nc1ncsc1C#Cc1cccc(O)c1 [Compound A27, 3-(4-aminothiazol-5-ylethynyl)phenol]              pIC50  6.00 to 8.00
4  c1ccc(Cc2c[nH]c3ncsc23)cc1 [Compound A7, 6-benzyl-4H-pyrrolo[2,3-d]thiazole]              pIC50  6.00 to 8.00

====

Biological target: UniProtKB Q13188
Sequence (Q13188 1-491): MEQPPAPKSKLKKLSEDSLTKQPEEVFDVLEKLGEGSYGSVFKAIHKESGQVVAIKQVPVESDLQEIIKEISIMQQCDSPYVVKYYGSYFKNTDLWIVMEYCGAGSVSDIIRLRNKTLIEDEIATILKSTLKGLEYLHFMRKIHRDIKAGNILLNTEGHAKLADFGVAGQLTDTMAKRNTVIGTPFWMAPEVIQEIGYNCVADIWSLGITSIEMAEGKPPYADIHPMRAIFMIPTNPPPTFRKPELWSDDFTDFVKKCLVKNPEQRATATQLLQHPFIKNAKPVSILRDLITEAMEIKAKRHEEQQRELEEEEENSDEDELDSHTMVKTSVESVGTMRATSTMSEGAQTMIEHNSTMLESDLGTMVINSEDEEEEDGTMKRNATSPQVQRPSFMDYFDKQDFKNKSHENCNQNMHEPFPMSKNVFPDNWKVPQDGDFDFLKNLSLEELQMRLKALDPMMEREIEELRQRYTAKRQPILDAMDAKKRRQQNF
measured.quantity: IC50

In [3]: df
Out[3]:
                                   compound       reading
0  CC(C)(C)OC(=O)Nc1ncsc1C#CCN1C(=O)c2ccccc2C1=O        > 1 µM
1               Nc1ncsc1C#Cc1cnc2[nH]ccc2c1  10 to 100 µM
2                    Nc1ncsc1C#Cc1cccc(O)c1    1 to 10 µM
3  CC(C)(C)OC(=O)Nc1nc(-c2ccncc2)sc1C#CCN1CCOCC1        > 1 µM
4  c1ccc(Cc2c[nH]c3ncsc23)cc1 [Compound A7, 6-benzyl-4H-pyrrolo[2,3-d]thiazole]    1 to 10 µM
